Each recorded value in this set is attributed to patent US20100048468A1.

Target: T1, mouse GLP-1 receptor (mouse, UniProt O35659 22-463)
T1 sequence (looked up): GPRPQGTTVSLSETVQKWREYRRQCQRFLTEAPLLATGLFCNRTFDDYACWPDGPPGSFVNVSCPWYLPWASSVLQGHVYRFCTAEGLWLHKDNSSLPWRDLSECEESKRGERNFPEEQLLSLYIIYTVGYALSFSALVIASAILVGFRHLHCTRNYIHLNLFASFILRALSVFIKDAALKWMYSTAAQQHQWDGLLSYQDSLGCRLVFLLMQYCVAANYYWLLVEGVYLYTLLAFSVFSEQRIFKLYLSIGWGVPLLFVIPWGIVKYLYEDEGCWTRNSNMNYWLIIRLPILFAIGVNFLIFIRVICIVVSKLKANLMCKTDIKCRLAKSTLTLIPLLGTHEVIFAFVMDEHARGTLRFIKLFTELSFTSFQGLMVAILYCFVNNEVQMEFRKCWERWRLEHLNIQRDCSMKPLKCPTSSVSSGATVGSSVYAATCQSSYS
Assay: cell-based or functional assay
No end group written: not given here.
measurement_label: log10 EC50 mouse (log10 of the value in nM)
Use the decimal logarithm of EC50 mouse (nM).

# annotated cases, reported log10 EC50 mouse shown
MWHAEGTFTSDVSSYLEGQAAKEFIAWLVKGR (ends and bridges not checked, Not pegylated) [MW-GLP1 (SEQ ID NO: 265)] :: 0.70
MYHAEGTFTSDVSSYLEGQAAKEFIAWLVKGR (ends and bridges not checked, Not pegylated) [MY-GLP1 (SEQ ID NO: 259)] :: 0.00
MFHAEGTFTSDVSSYLEGQAAKEFIAWLVKGR (ends and bridges not checked, Not pegylated) [MF-GLP1 (SEQ ID NO: 266)] :: 0.78
GHAEGTFTSDVSSYLEGQAAKEFIAWLVKGR (not fully specified, Not pegylated) [G-GLP-1 (SEQ ID NO: 248)] :: 0.48
AHAEGTFTSDVSSYLEGQAAKEFIAWLVKGR (Not pegylated) [A-GLP-1 (SEQ ID NO: 247)] :: -0.10

Okay, now this binder:
[Q] Item MHHAEGTFTSDVSSYLEGQAAKEFIAWLVKGR (ends and bridges not checked, Not pegylated) [MH-GLP1 (SEQ ID NO: 257)] : provide log10 EC50 mouse
[A] 1.04
